test: Hemolytic activity in male Sprague-Dawley rat erythrocytes at 25 uM incubated for 1 hr by absorbance based method relative to control; format: toxicity, cell-based, Erythrocyte; conditions: read-out: Activity
Non-standard residues stand in square brackets, D forms with d. Residues, ends and D or L forms follow the SMILES beside them. *: point of attachment. X1 = NC(=O)[C@H](Cc1c[nH]cn1)NC(=O)CNC(=O)[C@@H](N)CN*; Nspe = C[C@H](NCC(=O)O)c1ccccc1; Nlys = NCCCCNCC(=O)O
assayReadout: hemolysis at 1 h, 25 µM (%)
Write the value in % as a bare number.

Task: Name the reported hemolysis at 1 h, 25 µM value associated with the compound C[C@@H](c1ccccc1)N(CC(=O)NC[C@H](N)C(=O)NCC(=O)N[C@@H](Cc1c[nH]cn1)C(N)=O)C(=O)CN(CCCCN)C(=O)CN(C(=O)CN(C(=O)CN(CCCCN)C(=O)CN(C(=O)CN(C(=O)CN(CCCCN)C(=O)CN(C(=O)CN(C(=O)CNCCCCN)[C@@H](C)c1ccccc1)[C@@H](C)c1ccccc1)[C@@H](C)c1ccccc1)[C@@H](C)c1ccccc1)[C@@H](C)c1ccccc1)[C@@H](C)c1ccccc1 (H-[Nlys][Nspe][Nspe][Nlys][Nspe][Nspe][Nlys][Nspe][Nspe][Nlys][Nspe]-X1)
Output: 0.04
